B1: ATL3 (parent)
chain: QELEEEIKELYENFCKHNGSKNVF

variants of: B1; assay: protein stability index of a GFP-peptide fusion (GPS, HEK-293T) (PSI 1-6); higher = more stable; details: c terminus: a fixed tail appended;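 further: lentivirally expressed fusions sorted by FACS into six bins by GFP to DsRed ratio, PSI derived from sequencing read proportions per bin multiplied by bin number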
measurement-kind: protein stability index
Numbers only.

Reference set, count: 10
{"changes": "F14R", "protein stability index": 4.1}
{"changes": "K21G", "protein stability index": 2.49}
{"changes": "H17D", "protein stability index": 2.69}
{"changes": "E6N", "protein stability index": 3.29}
{"changes": "E2P", "protein stability index": 3.68}
{"changes": "G19N", "protein stability index": 2.69}
{"changes": "K21V", "protein stability index": 1.82}
{"changes": "E12Q", "protein stability index": 2.39}
{"changes": "E6A", "protein stability index": 2.13}
{"changes": "E4S", "protein stability index": 3.01}

For each entry beneath this line, provide reported protein stability index.
1. E12L
2. C15V
3. V23F
4. E6G
5. E12D
6. E12Y
7. C15Q

1: 2.12; 2: 2.27; 3: 2.22; 4: 3.09; 5: 2.89; 6: 2.03; 7: 3.67
